# test-description: NCI Yeast Anticancer Drug Screen. Data for the sgs1 mgt1 strain (AID 161);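 also: 0% = growth of cultures given vehicle only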
# reported-conditions: S. cerevisiae sgs1 mgt1 strain, at 50.0 µM, active compounds read high
# Experimental: Growth inhibition of yeast strains with defined genetic alterations is measured as a screen for potential anti-cancer activity. Selected strains with alterations in DNA damage repair or cell cycle control were exposed to compounds and growth inhibition was measured relative to vehicle treated controls. The strain used in this assay is sgs1 mgt1
Compounds without any hit were thinned out: in the full panel of roughly 79,000, 15% have a hit.
measured-metric: growth inhibition (%)

compound: OC(Cc1ccccn1)C(Cl)(Cl)Cl (configuration not stated)
measured-metric: growth inhibition
u: %
value-reported: -1.7
//
compound: COc1ccccc1P(=S)(c1ccccc1)c1ccccc1
measured-metric: growth inhibition
u: %
value-reported: 17.6
//
compound: O=C(CF)Nc1ccc([N+](=O)[O-])cc1
measured-metric: growth inhibition
u: %
value-reported: -6.25
//
compound: O=C(CCC1CCCCN1)Nc1ccc2c(c1)C(=O)c1ccc(NC(=O)CCN3CCCCC3)cc1C2=O (configuration not stated)
measured-metric: growth inhibition
u: %
value-reported: -1.9
//
compound: CCCC[S][Sn]([CH2]CCC)([CH2]CCC)[S]CCCC
measured-metric: growth inhibition
u: %
value-reported: 94.7
//
compound: Cc1ccc2c3c(c(=O)oc2c1)[C@H](C)C[C@@](C)(CO)O3
measured-metric: growth inhibition
u: %
value-reported: 9.8
//
compound: CNCCc1cccs1
measured-metric: growth inhibition
u: %
value-reported: 1.25

====

# test-description: NCI Yeast Anticancer Drug Screen. Data for the bub3 strain (AID 167)
# reported-conditions: S. cerevisiae bub3 mutant strain, at 50.0 µM, active compounds read high
The panel holds about 79,000 compounds, 15% with a hit somewhere; the sample as a whole holds those more often.
Each record here notes measured growth inhibition.

compound: O=c1n(CC2CS2)c2ccccc2n1CC1CS1 (stereo not given)
u: %
growth inhibition: -11.1
--
compound: CCC(=O)[O-].CCC(=O)[O-].N.N.N.N.[Co+3].[O-][Cl+3]([O-])([O-])[O-]
u: %
growth inhibition: 2.05
--
compound: CCC[P+](CCC)(CCC)CCCCCCCCCC[P+](CCC)(CCC)CCC
u: %
growth inhibition: -1.15
--
compound: COc1ccc2c(c1)[C@@]13CCCC[C@H]1[C@@H](C2)N(C)CC3=O
u: %
growth inhibition: 3
--
compound: NCCc1ccccc1
u: %
growth inhibition: -18.3
--
compound: Cc1ncc(C)[n+]2c(C)csc12
u: %
growth inhibition: -0.9
--
compound: O=C(O)[C@H](O)[C@@H](O)C(=O)O.[Pb]
u: %
growth inhibition: 6.85
--
compound: Cc1nc2cccc(F)c2c(=O)n1-c1nnc(C(F)(F)F)s1
u: %
growth inhibition: -6.4
--
compound: O=S(=O)(O)C1CCC(O)C2[N-]CCCC21.O=S(=O)(O)C1CCC(O)C2[N-]CCCC21.[Zn+2] (stereo not given)
u: %
growth inhibition: -10.7
--
compound: COc1cc2c(cc1OC)CC[N+](C)=C2
u: %
growth inhibition: -2.4
--
compound: Nc1ccc([As](=O)(O)O)cc1C(=O)O
u: %
growth inhibition: 7.2
--
compound: NS(=O)(=O)c1ccc(N=Nc2ccc([As](=O)(O)O)cc2)cc1
u: %
growth inhibition: 3.45
--
compound: C=C(C(=C)P(=S)(C(C)C)C(C)C)P(=S)(C(C)C)C(C)C
u: %
growth inhibition: -7
--
compound: CSP(N)(=O)OC(C)C (stereo not given)
u: %
growth inhibition: -33.6
--
compound: S=P12OCCC(CO1)O2 (stereo not given)
u: %
growth inhibition: -8.15
--
compound: NC1CC=C(COC(=O)C(O)(c2ccccc2)C2CC2)CC1 (stereo not given)
u: %
growth inhibition: -7.4
--
compound: NC(N)=NC(N)=Nc1ccc(Cl)cc1
u: %
growth inhibition: -1.9
--
compound: O=C(Cc1ccccc1)OCC1CCCO1 (stereo not given)
u: %
growth inhibition: -17.8
--
compound: CC(C)(C)[CH2][Sn]([Cl])([CH2]C(C)(C)C)[CH2]C(C)(C)C
u: %
growth inhibition: 99.2
--
compound: CN1CCN(c2cc3nsnc3c3nsnc23)CC1
u: %
growth inhibition: -12.7
--
compound: OCCNC1CCCCC1
u: %
growth inhibition: 3.55
--
compound: [Fe+2].[c-]1[c-][c-][cH-][c-]1.[c-]1[c-][c-][cH-][c-]1.c1cc[c]([Pb]([c]2ccccc2)[c]2ccccc2)cc1
u: %
growth inhibition: 78.3
--
compound: CCOP(=O)(Cc1ccc(N)cc1)OCC
u: %
growth inhibition: -23.9
--
compound: O=C(Cl)OC1CS(=O)(=O)CC1O (stereo not given)
u: %
growth inhibition: 4.45
--
compound: CN(C)C1OCCO1
u: %
growth inhibition: -7.05
--
compound: CC(C)C1NC(C(C)C)N2C(C(C)C)N12 (stereo not given)
u: %
growth inhibition: -2.25
--
compound: CCCCOC(N)=O
u: %
growth inhibition: 0.1
--
compound: [C-]#[O+].[C-]#[O+].[C-]#[O+].[CH3][Sn]([c]1ccccc1)[c]1ccccc1.[W].[c-]1[c-][c-][cH-][c-]1
u: %
growth inhibition: 99.3
--
compound: C/C(CCl)=N/NC1=NC(C)(CCC2(C)N=C(N/N=C(/C)CCl)SP2(=O)NC23CC4CC(CC(C4)C2)C3)P(=O)(NC23CC4CC(CC(C4)C2)C3)S1 (stereo not given)
u: %
growth inhibition: -19.5
--
compound: C=CC(Cl)OC(=O)C(C)O (stereo not given)
u: %
growth inhibition: 1.55
--
compound: FC(F)(F)c1ccc2c(c1)N(CCCl)c1ccccc1S2
u: %
growth inhibition: 1.5
--
compound: O=S(=O)(O)c1ccc([Se][Se]c2ccc(S(=O)(=O)O)cc2)cc1
u: %
growth inhibition: -19.2
--
compound: Nc1ccc2ncccc2c1 (tested in a mixture with another compound)
u: %
growth inhibition: 46.5
--
compound: N=c1nc(N)n2c(N)nc(=N)n12
u: %
growth inhibition: -1.75
--
compound: O=S1(=O)OCCOS(=O)(=O)C1(Cl)Cl
u: %
growth inhibition: -31.6
--
compound: O=c1[nH]cnc2c1ncn2-c1ccc(N(CCCl)CCCl)cc1
u: %
growth inhibition: -12.2
--
compound: C1CCC(NC2CCCC2)CC1
u: %
growth inhibition: 12.4
--
compound: CC1(C)N=C(N)N=C(N)N1c1ccc(CCC(=O)Nc2cccc(S(=O)(=O)F)c2)c(Cl)c1
u: %
growth inhibition: -31.9
--
compound: O=C(CC(=O)c1ccccc1)c1ccccc1.O=C(CC(=O)c1ccccc1)c1ccccc1.[Pd]
u: %
growth inhibition: 6.05
--
compound: CCCCOCCOC(=O)CCl
u: %
growth inhibition: -4.95
--
compound: N#CCc1ccccc1.N#CCc1ccccc1.[C-]#[O+].[C-]#[O+].[C-]#[O+].[C-]#[O+].[W]
u: %
growth inhibition: -5.05
--
compound: COC(=O)CCc1ccc(NP(=O)(Oc2ccccc2)N(CCCl)CCCl)cc1 (stereo not given)
u: %
growth inhibition: 12.2
--
compound: O=S1(=O)OCCO1
u: %
growth inhibition: -5.55
--
compound: CC(Br)C(=O)C(CCN(C)C)(c1ccccc1)c1ccccc1 (stereo not given)
u: %
growth inhibition: 21.8
--
compound: N#CCc1ccccc1CC#N
u: %
growth inhibition: 3.9
--
compound: CC(=O)Nc1cc([As]=O)ccc1O (stereo not given)
u: %
growth inhibition: 50.8
--
compound: CNCCc1cccs1
u: %
growth inhibition: 6.15
--
compound: COC(=O)C1C(O)CC2CCC1[N+]2(C)C (stereo not given)
u: %
growth inhibition: 36.9
--
compound: O=C(CI)NCCNC(=O)CI
u: %
growth inhibition: 10.6
--
compound: CN(CCC(=O)O)C1=Nc2ccc(Cl)cc2C(c2ccccc2)=[N+]([O-])C1
u: %
growth inhibition: 16.2
